biological target: TNFα (Homo sapiens (Human)); assay: TNF induced HEK-Blue assay; details: TNFα 0.5 ng/ml; HEK-Blue-CD40L cells, NF-κB-driven secreted alkaline phosphatase reporter; 18 h
Sequence (P01375 77-233): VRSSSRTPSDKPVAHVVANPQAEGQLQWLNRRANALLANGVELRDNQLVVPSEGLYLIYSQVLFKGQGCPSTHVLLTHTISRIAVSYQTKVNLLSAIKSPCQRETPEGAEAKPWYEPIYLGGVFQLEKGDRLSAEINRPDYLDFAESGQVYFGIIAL
assay.endpoint: IC50

Record excerpt, results attached:
# compound, assay.endpoint, reported.measurement
measured = [
    ("CC(C)(O)c1ccc(-c2ccc3nc4n(c3n2)C(c2cc(F)ccc2C(F)(F)F)CC4)cc1 (racemic) [Example 34 (rac)]", "IC50", "< 1000 nM"),
    ("CC(C)(O)c1ccc(-c2ccc3nc4n(c3n2)C(c2c(F)cccc2C(F)(F)F)CC4)cc1 (racemic) [Example 32 (e2)]", "IC50", "< 1000 nM"),
    ("CC(C)(O)c1ccc(-c2ccc3nc4n(c3n2)C(c2ccccc2C(F)(F)F)CC4F)cc1 (single isomer, unassigned) [Example 14 (e2)]", "IC50", "< 1000 nM"),
    ("CC(C)(O)c1ccc(-c2ccc3nc4n(c3n2)C(c2cc(F)ccc2C(F)(F)F)CC4O)cc1 (single isomer, unassigned) [Example 13 (e4)]", "IC50", "1000 to 10000 nM"),
    ("CC(C)(O)c1ccc(-c2ccc3nc4n(c3n2)C(c2ccccc2C(F)(F)F)CC4O)cc1 (single isomer, unassigned) [Example 1 (e4)]", "IC50", "1000 to 10000 nM"),
]

Quick note, IC50 for CC(C)(O)c1ccc(-c2ccc3nc4n(c3n2)C(c2ccccc2C(F)(F)F)CC4F)cc1 (single isomer, unassigned) [Example 14 (e4)] landed at < 1000 nM
